tested on: M. tuberculosis (Mtb) strain H37Ra; experiment: microbe, parasite or virus in culture; type: cell-based; conditions: Mycobacterium tuberculosis, read-out: MIC Mtb H37Ra
Numbered stars: 1 amine (or outer) side, 2 acyl side, 3 side chain; on linkers, the order of the positions; unused ones are H or OH. Bridge positions count the residues as written; N and C are the ends. Square brackets hold non-standard residues; d marks the D form. Peptide text beside a SMILES is read from it. * marks the point of attachment. ξ: configuration not given here. X2 = CCCC1CC(C(=O)[*:2])N([*:1])C1; X1 = CCC1CC(C(=O)[*:2])N([*:1])C1; Butanoyl(2-oxo) = CCC(=O)C(=O)*; NMeAhp(2) = CCCCC[CH](NC)C(=O)O; ξPro(4ξ-Me) = CC1CNC(C(=O)O)C1; NMeT = CN[CH](C(=O)O)[CH](C)O; NMeL = CN[CH](CC(C)C)C(=O)O; hLeu = CC(C)CC[CH](N)C(=O)O; NMeV = CN[CH](C(=O)O)C(C)C
measure: MIC (µg/mL)
Response body: numeric value in µg/mL, unit text excluded.

// solved cases for MIC follow
CCCCCC1C(=O)NCC(=O)OC(C)C(N(C)C(=O)C2CC(CCC)CN2C(=O)C(C(C)C)N(C)C(=O)C(=O)CC)C(=O)NC(CC(C)C)C(=O)N2CC(C)CC2C(=O)NC(CCC(C)C)C(=O)N(C)C(C(C)C)C(=O)N2CCCC2C(=O)N1C (stereo not shown) [Mycoplanecin E] ({Butanoyl(2-oxo)}-[NMeV][X2][NMeT]L[ξPro(4ξ-Me)][hLeu][NMeV]P[NMeAhp(2)]G; ester 3-C; configuration not given here); 0.03
CCC(=O)C(=O)N(C)C(C(=O)N1CC(CC)CC1C(=O)N(C)C1C(=O)NC(CC(C)C)C(=O)N2CC(C)CC2C(=O)NC(CCC(C)C)C(=O)N(C)C(C(C)C)C(=O)N2CCCC2C(=O)N(C)C(CC(C)C)C(=O)NCC(=O)OC1C)C(C)C (stereo not shown) [Mycoplanecin A] ({Butanoyl(2-oxo)}-[NMeV][X1][NMeT]L[ξPro(4ξ-Me)][hLeu][NMeV]P[NMeL]G; ester 3-C; configuration not given here); 0.03
CCC(=O)C(=O)N(C)C(C(=O)N1CC(C)CC1C(=O)N(C)C1C(=O)NC(CC(C)C)C(=O)N2CC(C)CC2C(=O)NC(CCC(C)C)C(=O)N(C)C(C(C)C)C(=O)N2CCCC2C(=O)N(C)C(CC(C)C)C(=O)NCC(=O)OC1C)C(C)C (stereo not shown) [Mycoplanecin B]; 0.1

Next molecule, MIC to be filled in.
### Prompt MIC for CCCC1CC(C(=O)N(C)C2C(=O)NC(CC(C)C)C(=O)N3CC(C)CC3C(=O)NC(CCC(C)C)C(=O)N(C)C(C(C)C)C(=O)N3CCCC3C(=O)N(C)C(CC(C)C)C(=O)NCC(=O)OC2C)N(C(=O)C(C(C)C)N(C)C(=O)C(=O)CC)C1 (stereo not shown) [Mycoplanecin D] ({Butanoyl(2-oxo)}-[NMeV][X2][NMeT]L[ξPro(4ξ-Me)][hLeu][NMeV]P[NMeL]G; ester 3-C; configuration not given here) ?
### Response 0.05
